In this section, each of the compounds is paired with its reported pIC50.
- EXPERIMENTAL_SYSTEM: Proteasome chymotrypsin-like activity (S26 protein from RPMI8226 cells) (Homo sapiens, UniProt P28074)
- Sequence (P28074 60-263 limits assumed): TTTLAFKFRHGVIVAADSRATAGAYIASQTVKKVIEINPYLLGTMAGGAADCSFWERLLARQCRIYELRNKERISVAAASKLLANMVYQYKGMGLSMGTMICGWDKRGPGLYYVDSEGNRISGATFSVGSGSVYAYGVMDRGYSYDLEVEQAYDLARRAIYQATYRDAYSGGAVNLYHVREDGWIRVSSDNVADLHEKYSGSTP
pIC50: −log10 of the molar value.

1. COc1cccc(CC2(C(=O)N[C@@H](CC(C)C)B(O)O)CC(CNC(=O)c3cc(C)nn3C(C)C)=NO2)c1 (stereo partly shown) [Example 232] = > 8.00
2. Cc1cccc(CC2(C(=O)N[C@@H](CC(C)C)B(O)O)CC(CNC(=O)c3c(Cl)c(C)nn3C(C)C)=NO2)c1 (stereo partly shown) [Example 244] = > 8.00
3. CC(C)C[C@H](NC(=O)C1CC([C@@H](NC(=O)c2cc(Cl)ccc2Cl)C(C)C)=NO1)B(O)O (stereo partly shown) [Example 72] = > 8.00
4. CC(C)C[C@H](NC(=O)C1(Cc2ccccc2)CC(CNC(=O)c2cc3ccccc3cn2)=NO1)B(O)O (stereo partly shown) [Example 121] = > 8.00
5. CC(C)C[C@H](NC(=O)C1CC(c2cccc(C(C)(C)C)c2)=NO1)B(O)O (stereo partly shown) [Example 14] = > 6.60

Requested read-out: pIC50. Entry: CC(C)C[C@H](NC(=O)C1(Cc2cccc(Cl)c2)CC(CNC(=O)c2cccn3ccnc23)=NO1)B(O)O (stereo partly shown) [Example 177]
> 8.00

Entry CC(C)C[C@H](NC(=O)C1(Cc2ccccc2)CC(CNC(=O)c2cnccn2)=NO1)B(O)O (stereo partly shown) [Example 106] : reported pIC50 = ?
> 8.00

Any idea what pIC50 was measured for CC(C)C[C@H](NC(=O)C1(Cc2ccccc2)CC(CNC(=O)c2cccc3c2ccn3C(C)C)=NO1)B(O)O (stereo partly shown) [Example 134] ?
> 8.00

For the compound O=C(N[C@@H](Cc1ccccc1)B(O)O)C1(Cc2ccccc2)CC(COCc2ccccc2)=NO1 (stereo partly shown) [Example 257] , what pIC50 is on record?
> 8.00

pIC50 for Cc1nc(COCC2=NOC(Cc3ccccc3)(C(=O)N[C@@H](CC(C)C)B(O)O)C2)c(Cl)s1 (stereo partly shown) [Example 50] ?
> 8.00

If you can, please state the reported pIC50 value of Cc1cnc(C(=O)NCC2=NOC(Cc3ccccc3)(C(=O)N[C@@H](CC(C)C)B(O)O)C2)cn1 (stereo partly shown) [Example 151] .
> 8.00

Return reported pIC50; argument: CC(C)C[C@H](NC(=O)C1(C2(c3ccccc3)CC2)CC(CNC(=O)c2nccc3ccccc23)=NO1)B(O)O (stereo partly shown) [Example 180]
> 7.30

Look up pIC50 for this compound: CC[C@H](NC(=O)C1(Cc2ccccc2)CC(CNC(=O)c2cccc3ccccc23)=NO1)B(O)O (stereo partly shown) [Example 303]
> 8.00

###

The following molecules are shown together with reported pIC50 values.
- EXPERIMENTAL_SYSTEM: Proteasome caspase-like activity (S26 protein from RPMI8226 cells) (Homo sapiens (Human))
- Sequence (P28072 whole entry): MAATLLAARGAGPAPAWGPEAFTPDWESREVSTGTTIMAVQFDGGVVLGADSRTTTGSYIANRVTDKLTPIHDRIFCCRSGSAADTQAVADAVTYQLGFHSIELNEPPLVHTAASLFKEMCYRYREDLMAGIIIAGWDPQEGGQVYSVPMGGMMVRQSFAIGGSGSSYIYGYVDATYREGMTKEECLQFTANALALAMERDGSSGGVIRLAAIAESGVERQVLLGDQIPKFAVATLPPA
- PROTOCOL_DESCRIPTION: Proteasome caspase-like activity inhibition (Z-Leu-Leu-Glu-AMC fluorogenic substrate, RPMI8226 cell extract)
- Type: biochemical
- CONDITION_SUMMARY: S26 protein from RPMI8226 cell extract 2 ug/well, substrate 20 uM, 37° C., 90 minutes
- Procedure: The abilities to inhibit the proteasome activity of the compounds described in the Examples of the present invention and boronic acid drugs were evaluated as follows. RPMI8226 cells, which is a multiple myeloma cell line, were cultured and then separated by a centrifuge, and washed twice with phosphate buffered saline (PBS). […] The fluorescence of the fluorogenic substrate was measured by FlexStation II Fluorometer (Molecular Devices). […]
pIC50: −log10 of the molar value.

Below, each entry is followed by its recorded pIC50 result.
1. CC(C)C[C@H](NC(=O)C1(Cc2ccccc2)CC(CNC(=O)c2cccc(C(F)(F)F)n2)=NO1)B(O)O (stereo partly drawn) = < 6.00
2. CC(C)[C@H](NC(=O)C1(Cc2ccccc2)CC(CNC(=O)c2ccccc2)=NO1)B(O)O (stereo partly drawn) = < 6.00

Field request: pIC50 | item: CC(C)C[C@H](NC(=O)C1(C)CC(CNC(=O)c2cc(Cl)ccc2Cl)=NO1)B(O)O (stereo partly drawn)
< 5.60

Recorded pIC50 of CC(C)C[C@H](NC(=O)C1(Cc2ccccc2)CC(CNC(=O)c2cnc3c(ccn3C(C)C)c2)=NO1)B(O)O (stereo partly drawn) , please.
< 7.00

Which pIC50 is listed for CC(C)C[C@H](NC(=O)C1(Cc2ccccc2F)CC(CNC(=O)c2nccc3ccccc23)=NO1)B(O)O (stereo partly drawn) ?
< 6.00

Give its pIC50 value. Item: CC(C)C[C@H](NC(=O)C1(Cc2ccccc2)CC(CNC(=O)c2ccc(C(F)(F)F)nc2)=NO1)B(O)O (stereo partly drawn)
< 6.30
